Where these numbers come from: the array DNA melting data of Ke et al. (doi:10.1101/2024.01.08.574731)

- protocol_details: melting temperature; fluorescence melt of hairpins on a sequencing array, two-state fit, raised by 9.35 °C to match UV melts
- condition_info: sodium 0.088 M
# criterion met = Tm below 50 °C (exclusive); criterion not met = Tm at/above 50 °C

GCATGGCGAAAGCTGTGC (((..((....))..))) :: criterion not met
GATACCACGAAAGTGATC (((..(((....)))))) :: criterion met
GGCGCTGGAAACAGTGCC (((.(((....))).))) :: criterion not met
GATCTGCTTACAGATC ((((((....)))))) :: criterion not met
GTCGGTGGAAACATCGGC (.((.((....)).)).) :: criterion met

Task: Below 50 °C on Tm? Entry GATCATAGGGATGATC ((((((....))))))
Result: criterion met

Task: Below 50 °C on Tm? Entry GACAGCCGAAAGGCGGTC (((.(((....))).)))
Result: criterion not met

Task: Below 50 °C on Tm? Entry GATTTGAAAAAATC (((((....)))))
Result: criterion met

Task: Below 50 °C on Tm? Entry GTAAGGGGAAACCCTTAC (((((((....)))))))
Result: criterion not met

Task: Below 50 °C on Tm? Entry GATCCCCACCGGGATC ((((((....))))))
Result: criterion not met

Task: Below 50 °C on Tm? Entry GCATGGGGAAACCCACGC ((.((((....)))).))
Result: criterion met
